# METHOD_SUMMARY: Toxicity liver stage against HepG2, at 10uM
# Format: cell-based
# Set-up: test concentration 10 uM, cell line HepG2-A16-CD81EGFP
# CONDITION_PARAMETERS: human, HepG2-A16-CD81EGFP cells; read-out: INHIBITION
MEASURED_PARAMETER: cytotoxicity at 10 µM

Fill in the blank: the reported cytotoxicity at 10 µM of CN(C)c1nccc(C2CN(C(=O)CO)C2)n1 is ____.
-10.6%

Fill in the blank: the reported cytotoxicity at 10 µM of CCc1cc(NCCCOC2CCCC2)ncn1 is ____.
-1.41%

Fill in the blank: the reported cytotoxicity at 10 µM of Cn1ncc(NCc2cccc(F)c2)c(Cl)c1=O is ____.
-7.72%

Fill in the blank: the reported cytotoxicity at 10 µM of COCCNC(=O)C[C@@H]1COC[C@H]2CN(CC3CCOCC3)C[C@@H]12 is ____.
-92.9%

Fill in the blank: the reported cytotoxicity at 10 µM of CNc1ccnc(NCC(=O)Nc2cc(C)ccc2OC)n1 is ____.
-2.9%

Fill in the blank: the reported cytotoxicity at 10 µM of CC(C)Cn1cncc1-c1nc2c([nH]1)CC(C)(C)CNC2=O is ____.
-1.41%

Fill in the blank: the reported cytotoxicity at 10 µM of COc1ccc2nc(O)c(CN(C)Cc3ncc[nH]3)cc2c1 is ____.
0.55%

* * *

Would you mind telling me the reported cytotoxicity at 10 µM of each entry?
# METHOD_SUMMARY: Toxicity liver stage against HepG2, at 10uM
# Assay type: cell-based
# Design: test concentration 10 uM, cell line HepG2-A16-CD81EGFP
# CONDITION_PARAMETERS: human, HepG2-A16-CD81EGFP cells; read-out: INHIBITION
A number alone suffices; assume %.

Fill in the blank: the reported cytotoxicity at 10 µM of COC(=O)C(O)C1CCN(CCc2ccccn2)CC1 (stereo not drawn) is ____.
-7.64

Fill in the blank: the reported cytotoxicity at 10 µM of CCn1c(C)cc(C(=O)N2CCC(Nc3cccnn3)CC2)c1C is ____.
4.71

Fill in the blank: the reported cytotoxicity at 10 µM of CCOC(=O)CCCNc1nc(C(C)(C)C)nc2c1cnn2C is ____.
-0.627

Fill in the blank: the reported cytotoxicity at 10 µM of O=C(CCc1cc(O)no1)N1CCCC(OCc2cccnc2)C1 (stereo not drawn) is ____.
-12.7

Fill in the blank: the reported cytotoxicity at 10 µM of COc1cccc(CN2CCc3nc4ccsc4c(=O)n3CC2)c1 is ____.
-26.5

Fill in the blank: the reported cytotoxicity at 10 µM of Cn1nc2c(cc1=O)CN(CC(=O)Nc1nncs1)CC2 is ____.
-9.55

Fill in the blank: the reported cytotoxicity at 10 µM of CC(NC(=O)NCCNc1cccc(F)c1C#N)c1nccs1 (stereo not drawn) is ____.
-1.84

Fill in the blank: the reported cytotoxicity at 10 µM of Nc1nc(O)cc(N2CCC(c3cc(Cc4ccccc4)n[nH]3)CC2)n1 is ____.
1.85

Fill in the blank: the reported cytotoxicity at 10 µM of O=C(C[S+]([O-])Cc1cccc(C(F)(F)F)c1)NC1CCCC1 (stereo not drawn) is ____.
7.72

Fill in the blank: the reported cytotoxicity at 10 µM of Cc1noc(C)c1CN1C[C@@H]2COC[C@@H](CC(=O)N3CCCCO3)[C@@H]2C1 is ____.
-72.4

Fill in the blank: the reported cytotoxicity at 10 µM of Cc1cccc(CS(=O)(=O)CC(=O)N(C)Cc2ccccc2F)c1 is ____.
-2.71

Fill in the blank: the reported cytotoxicity at 10 µM of O=C(Nc1ccccc1)c1ccc(NCc2ccncc2)nn1 is ____.
-3.17

Fill in the blank: the reported cytotoxicity at 10 µM of O=C(CCCn1cncn1)NC1(c2cccc(Br)c2)CC1 is ____.
9.57

Fill in the blank: the reported cytotoxicity at 10 µM of CCOCC1CN(S(=O)(=O)CC)Cc2cnn(CC3CC3)c21 (stereo not drawn) is ____.
9.55

Fill in the blank: the reported cytotoxicity at 10 µM of CCOc1ccccc1C(C(=O)O)N(C)Cc1nc(C)c[nH]1 (stereo not drawn) is ____.
-5.18

Fill in the blank: the reported cytotoxicity at 10 µM of O=S(=O)(C1CC1)N1CCCn2cnc(COc3cccnc3)c2C1 is ____.
1.4

Fill in the blank: the reported cytotoxicity at 10 µM of COc1ccc(C(=O)N2CCO[C@H]3[C@@H](OCC4CC4)CC[C@@H]32)cc1F is ____.
19.1

Fill in the blank: the reported cytotoxicity at 10 µM of CC(=O)N1CC(=O)N(c2ccccc2)CC12CCN(Cc1ccsc1)C2 (stereo not drawn) is ____.
13.4

Fill in the blank: the reported cytotoxicity at 10 µM of O=c1[nH]nc(-c2cccs2)c2sc(N3CCOCC3)nc12 is ____.
9.28

Fill in the blank: the reported cytotoxicity at 10 µM of CC(CNC(=O)N1CCSCC1)Cc1cccs1 (stereo not drawn) is ____.
-8.63

Fill in the blank: the reported cytotoxicity at 10 µM of O=C(c1ccsc1)N1CCc2c(CNc3ncccn3)n[nH]c2C1 is ____.
-16.7

Fill in the blank: the reported cytotoxicity at 10 µM of CC(C)n1[nH]c(=O)c2c1NC(=O)CSC2c1ccc(OCC(N)=O)cc1 (stereo not drawn) is ____.
8.46

Fill in the blank: the reported cytotoxicity at 10 µM of CC(NC(=O)c1cc2n(n1)CCCN(C)C2)c1cn2ncsc2n1 (stereo not drawn) is ____.
-6.73
